Listing of entries alongside the reported melting point.
measured.parameter: melting point

> print(dat)
                                   structure  measured.result
 1  COc1ccc(/C=C/C(=O)c2ccc(NC(=O)CSc3nc(-c4ccc(OC)cc4)cc(-c4ccc(OCCCl)cc4)n3)cc2)cc1    280 to 282 °C
 2  COc1cc(/C=C/C(=O)c2ccc(NC(=O)CSc3nc(-c4ccc(Cl)cc4)cc(-c4ccc(OCCCl)cc4)n3)cc2)cc(OC)c1OC    221 to 223 °C
 3  COc1ccc(/C=C/C(=O)c2ccc(NC(=O)CSc3nc(-c4ccc(OC)cc4)cc(-c4ccc([N+](=O)[O-])cc4)n3)cc2)cc1    183 to 185 °C
 4  COc1cc(/C=C/C(=O)c2ccc(NC(=O)CSc3nc(-c4ccc(C)cc4)cc(-c4ccc(Cl)cc4)n3)cc2)cc(OC)c1OC    234 to 236 °C
 5  COc1ccc(-c2cc(-c3ccc(C)cc3)nc(SCC(=O)Nc3ccc(C(=O)/C=C/c4cc(OC)c(OC)c(OC)c4)cc3)n2)cc1    195 to 197 °C
 6  COc1ccc(-c2cc(-c3ccc([N+](=O)[O-])cc3)nc(SCC(=O)Nc3ccc(C(=O)/C=C/c4cc(OC)c(OC)c(OC)c4)cc3)n2)cc1    254 to 256 °C
 7  COc1ccc(/C=C/C(=O)c2ccc(NC(=O)CSc3nc(-c4ccc(Cl)cc4)cc(-c4ccc([N+](=O)[O-])cc4)n3)cc2)cc1OC    147 to 149 °C
 8  COc1ccc(/C=C/C(=O)c2ccc(NC(=O)CSc3nc(-c4ccc(Cl)cc4)cc(-c4ccc(OCCCl)cc4)n3)cc2)cc1OC    210 to 212 °C
 9  COc1ccc(/C=C/C(=O)c2ccc(NC(=O)CSc3nc(-c4ccc(C)cc4)cc(-c4ccc(Cl)cc4)n3)cc2)cc1OC    144 to 146 °C
10  COc1ccc(/C=C/C(=O)c2ccc(NC(=O)CSc3nc(-c4ccc(Cl)cc4)cc(-c4ccc([N+](=O)[O-])cc4)n3)cc2)cc1    190 to 192 °C
11  COc1cc(/C=C/C(=O)c2ccc(NC(=O)CSc3nc(-c4ccc(Cl)cc4)cc(-c4ccc([N+](=O)[O-])cc4)n3)cc2)cc(OC)c1OC    268 to 270 °C
12  COc1ccc(/C=C/C(=O)c2ccc(NC(=O)CSc3nc(-c4ccc(C)cc4)cc(-c4ccc(OC)cc4)n3)cc2)cc1    226 to 228 °C
13  COc1ccc(/C=C/C(=O)c2ccc(NC(=O)CSc3nc(-c4ccc(C)cc4)cc(-c4ccc(Cl)cc4)n3)cc2)cc1    242 to 244 °C

These measurements were taken from paper PMC7144330.
